assay-target: full length recombinant Pim-2 protein (Homo sapiens)
Construct: by full length recombinant Pim-1, Pim-2, or Pim-3 protein; hexahistidine tag followed by a thrombin cleavage site (N); made in house; host or cells: Sf9 (baculovirus) or E. coli (pET28)
Sequence (Q9P1W9 whole entry): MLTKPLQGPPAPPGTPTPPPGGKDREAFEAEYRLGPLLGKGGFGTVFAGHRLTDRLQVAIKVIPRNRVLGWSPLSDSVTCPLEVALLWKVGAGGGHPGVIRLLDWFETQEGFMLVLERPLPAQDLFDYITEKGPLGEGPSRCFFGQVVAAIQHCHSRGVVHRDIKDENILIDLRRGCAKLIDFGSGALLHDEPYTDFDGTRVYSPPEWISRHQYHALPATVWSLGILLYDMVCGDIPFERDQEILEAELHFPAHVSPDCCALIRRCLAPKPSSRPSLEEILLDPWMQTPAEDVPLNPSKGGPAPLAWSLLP
method: Pim-2 enzyme assay (HTRF, phosphorylation of biotinylated-BAD (S112) peptide)
Format: biochemical
experimental-conditions: enzyme assay, Pim-2; read-out: Pim2_IC50
pIC50: −log10 of the molar value.

[
  {
    "compound": "Nc1nccc(N2CCc3ccc(-c4ccc5[nH]nc(-c6cncc(N7CCC(N)CC7)n6)c5c4)cc32)n1",
    "pIC50": 6.26
  },
  {
    "compound": "NC1CCN(c2cncc(-c3c[nH]c4ccc(-c5c(F)cccc5Cl)cc34)n2)CC1 [Example 27, bis(2,2,2-trifluoroacetate)]",
    "pIC50": 7.32
  },
  {
    "compound": "c1cc(-c2ccc3[nH]nc(-c4cncc(O[C@@H]5CCCNC5)n4)c3c2)nc(C2CC2)c1",
    "pIC50": 6.79
  },
  {
    "compound": "N#Cc1ccc2c(-c3ccc4[nH]nc(-c5cncc(N6CCC(N)CC6)n5)c4c3)ccnc2c1",
    "pIC50": 6.28
  },
  {
    "compound": "NC1CCN(c2cncc(-c3n[nH]c4ccc(N5CCCC5=O)cc34)n2)CC1",
    "pIC50": 7.39
  },
  {
    "compound": "CCN(CC)C(=O)c1ccc(F)c(-c2ccc3[nH]nc(-c4cncc(N5CCC(N)CC5)n4)c3c2)c1",
    "pIC50": 7.31
  },
  {
    "compound": "NC1CCN(c2cncc(-c3n[nH]c4ccc(-c5ccnc(N6CCOCC6)n5)cc34)n2)CC1",
    "pIC50": 7.14
  },
  {
    "compound": "COc1ccc(F)c(-c2ccc3[nH]nc(-c4cncc(N5CCC(N)CC5)n4)c3c2)c1",
    "pIC50": 7.19
  },
  {
    "compound": "COc1cccc(-c2ccc3[nH]nc(-c4cncc(O[C@@H]5CCCNC5)n4)c3c2)n1",
    "pIC50": 7.20
  },
  {
    "compound": "NC1CCN(c2cncc(-c3n[nH]c4ccc(-c5cncc(C6CC6)n5)cc34)n2)CC1",
    "pIC50": 8.70
  },
  {
    "compound": "NC1CCN(c2cncc(-c3n[nH]c4ccc(-c5c(F)cccc5F)cc34)c2)CC1",
    "pIC50": 5.64
  },
  {
    "compound": "CC(C)Oc1cncc(-c2ccc3[nH]cc(-c4cccc(N)n4)c3c2)n1",
    "pIC50": 5.63
  },
  {
    "compound": "COc1cncc(-c2ccc3[nH]nc(-c4cncc(O[C@@H]5CCCNC5)n4)c3c2)c1",
    "pIC50": 7.11
  },
  {
    "compound": "Fc1cccc(Cl)c1-c1ccc2[nH]cc(-c3cncc(O[C@@H]4CCCNC4)n3)c2c1 [Example 26, bis(2,2,2-trifluoroacetate)]",
    "pIC50": 7.64
  },
  {
    "compound": "COc1cncc(-c2ccc3[nH]nc(-c4cncc(N5CCC(N)CC5)n4)c3c2)c1",
    "pIC50": 8.05
  },
  {
    "compound": "Cn1c(=O)cc(-c2ccc3[nH]nc(-c4cncc(N5CCC(N)CC5)n4)c3c2)c2ccccc21",
    "pIC50": 6.33
  }
]
